glycan array binding signal (z-score) by entry:
Target: Neu5Ac(a2-3)Gal(b1-4)[Fuc(a1-3)]GlcNAc(b1-6)[Gal(b1-3)]GalNAc
Assay: glycan array binding signal (z-score within array); higher = stronger binding
Conditions: glycan notation: IUPAC condensed, linker removed
Shown is part of a subset that was picked to be rich in the strongest signals.
measuredParameter: glycan array binding signal (z-score)

binder: MGL2 (Mus musculus), Q8JZN1 (protein) MTMRYENFQNLEREEKNQEMRNGDKKGGMESPKFALIPSQSFLWRILSWTHLLLFSLGLSLLLLVVISVIGSQNSQLRRDLGTLRAILDNTTSKIKAEFQSLDSRADNFEKGISSLKVDVEDHRQELQAGRDLSQKVTSLESTLEKREQALKTDLSDLTDHVQQLETDLKALTCQLANLKNNGSEVACCPLHWTEHEGSCYWFSESEKSWPEADKYCRLENSHLVVVNSLEEQNFLQNRLANVLSWMGLTDQNGPWRWVDGTDFDKGFKNWRPLQPDNWHGHMLGGGEDCAHFSYDGRWNDDVCQRHYHWICETELGKASSAHSPQLIASVP
measuredParameter: glycan array binding signal (z-score)
measurement: -0.139

binder: HHA (Hippeastrum hybrid) (protein) MQQDCNLVLYDVDKPIWASNTGGLARDCHLNMQSDGNLVVYAPRNQVIWASNTQGENGNYVCILQKDRNVVIYGTARWATGTNIHGAGIVGVPGSAPQNTTAEMIKLVRKYLITK
measuredParameter: glycan array binding signal (z-score)
measurement: -0.179

binder: Layilin (Mus musculus), Q8C351 (protein) MQPGAALQAMLLAVLLAKPRDSKGRLLSASDLDPRGGQLVCRGGTRRPCYKVIYFHDAFQRLNFEEAKETCMEDGGQLVSIETEDEQRLIEKFIENLLASDGDFWIGLKRLEEKQSNNTACQDLYAWTDGSTSQFRNWYVDEPSCGSEVCVVMYHQPSAPPGIGGSYMFQWNDDRCNMKNNFICKYHDDKPSTTPSIWPGGEATEPATPLLPEETQKEDTKETFKERREAALNLAYILIPSIPLFLLLVVTSAVCWVWICRRKREQTDPSTKEQHTIWPTPRQENSPNLDVYNVIRKQSEADLAEPRPDLKNISFRVCSGEAMPDDMSCDYENIAVNPSESGFVTLASMESGFVTNDIYEFSPDRMGRSKESGWVENEIYY
measuredParameter: glycan array binding signal (z-score)
measurement: 4.15
